tested on: house fly (Musca domestica); experiment: Effect of the active ingredient:synergist ratio on the synergistic activity (flies); details: carbofuran 20 ng/fly + synergist 200 ng/fly
fulfilled if 24 hour mortality (%) is below 80%. not fulfilled if not; exact matches included in not fulfilled.

## Task # strict comparison: is reported 24 hour mortality (%) < 80%? input = CC#CCOC(C)c1ccc(OC)c(OC)c1 (stereo not shown) [Compound 599]
## Result not fulfilled

###

Tested on: flies
Assay: Comparative investigations with known reference synergists on flies treated with carbofuran
Format: in vivo
Conditions: flies treated with carbofuran and 1000 ng of the synergist
Description: These SR50 ratios were compared to those of the new compounds prepared by us.
Respond with y for Synergist ratio SR50 values of 20 and above, n for values below.

C#CCOc1cccc2c1OC(C)(C)C2    n

## Task hey, is Synergist ratio SR50 for this one >= 20? C#CCON=C(C)c1cccc2ccccc12 [1-acetonaphthon-oxim (2-propynyl) ether]
## Result n

Values from patent US6277867A
